The origin of these recorded values is the supplement of paper PMC10065799.

Target: Fyn (UniProt P06241)
Sequence (P06241 whole entry, looked up): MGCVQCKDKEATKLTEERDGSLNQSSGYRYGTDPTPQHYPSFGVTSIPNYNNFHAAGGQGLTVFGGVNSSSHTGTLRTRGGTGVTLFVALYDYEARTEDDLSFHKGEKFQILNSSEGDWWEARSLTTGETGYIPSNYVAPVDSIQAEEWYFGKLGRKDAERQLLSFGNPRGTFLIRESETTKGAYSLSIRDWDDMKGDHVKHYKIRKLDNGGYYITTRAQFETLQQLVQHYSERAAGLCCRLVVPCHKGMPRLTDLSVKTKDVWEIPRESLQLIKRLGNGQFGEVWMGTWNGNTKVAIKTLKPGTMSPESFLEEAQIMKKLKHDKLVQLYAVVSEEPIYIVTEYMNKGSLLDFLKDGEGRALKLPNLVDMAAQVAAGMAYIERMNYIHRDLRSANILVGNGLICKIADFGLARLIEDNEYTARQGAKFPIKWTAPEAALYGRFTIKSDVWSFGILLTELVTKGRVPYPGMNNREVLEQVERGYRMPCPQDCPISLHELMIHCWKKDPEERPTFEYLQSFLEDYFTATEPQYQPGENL
Experiment: phosphorylation enrichment, bacterial display (enrichment ratio); higher = better substrate or ligand; peptides without Tyr show the background;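 further: 11-residue human phosphosite peptides and single-mutation variants displayed on the E. coli surface, counted by deep sequencing, each peptide's frequency after selection divided by its frequency in the unselected input library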;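 further: frequency after pTyr selection over input frequency; kinase dosed for 20-30% of maximal phosphorylation in three min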
If the reported phosphorylation enrichment equals or exceeds 0.5, assign YES. If not, assign NO.

stdin: Check this sequence for phosphorylation enrichment at or above 0.5: ENRKYYKDLKE [PURA_Y156_M157K]
stdout: NO

stdin: Check this sequence for phosphorylation enrichment at or above 0.5: LREKVYVSLEA [RXRA_Y397_A398V]
stdout: YES

stdin: Check this sequence for phosphorylation enrichment at or above 0.5: ITRDEYPSNPM [CEMIP2_Y1015]
stdout: NO

stdin: Check this sequence for phosphorylation enrichment at or above 0.5: DDDPEDRKFLE [UPF3B_Y160_Y160D]
stdout: YES

stdin: Check this sequence for phosphorylation enrichment at or above 0.5: EAAFVYAISSA [WNT4_Y113]
stdout: YES

stdin: Check this sequence for phosphorylation enrichment at or above 0.5: IETGKYEILTE
stdout: NO

stdin: Check this sequence for phosphorylation enrichment at or above 0.5: NACGLYFKLHN [GATA2_Y376_YF]
stdout: NO

stdin: Check this sequence for phosphorylation enrichment at or above 0.5: TEDELYQLSLQ [RASGRP2_Y378]
stdout: YES

stdin: Check this sequence for phosphorylation enrichment at or above 0.5: KVFRVYQGQQP [MUTYH_Y494]
stdout: NO

stdin: Check this sequence for phosphorylation enrichment at or above 0.5: DRQASYLDKVR [KRT16_Y131_L128Q]
stdout: NO

stdin: Check this sequence for phosphorylation enrichment at or above 0.5: TVEDHYFEGGI [TKT_Y563_YF]
stdout: YES

stdin: Check this sequence for phosphorylation enrichment at or above 0.5: WLQKLYNNFVN [MYO5C_Y526]
stdout: NO

stdin: Check this sequence for phosphorylation enrichment at or above 0.5: PADQAYSWYQH [NDST1_Y711_R709Q]
stdout: YES

stdin: Check this sequence for phosphorylation enrichment at or above 0.5: VNFDYYTVNLG [GFPT1_Y367_D366Y]
stdout: YES

stdin: Check this sequence for phosphorylation enrichment at or above 0.5: QTLTDYDIRFY [CSNK2A1_Y131]
stdout: YES

stdin: Check this sequence for phosphorylation enrichment at or above 0.5: CSSGGYEPRGR [FUS_Y239_R234C]
stdout: NO

stdin: Check this sequence for phosphorylation enrichment at or above 0.5: FFDANYDGKEF [MAPRE2_Y162_YF]
stdout: YES

stdin: Check this sequence for phosphorylation enrichment at or above 0.5: RSDEDYLYREE [POR_Y573]
stdout: YES

stdin: Check this sequence for phosphorylation enrichment at or above 0.5: LSVEIYDRREF [ITGB7_Y753_YF]
stdout: YES

stdin: Check this sequence for phosphorylation enrichment at or above 0.5: VTRDEYPSNPM [CEMIP2_Y1015_I1010V]
stdout: NO

stdin: Check this sequence for phosphorylation enrichment at or above 0.5: QRALLYEDALY [UNC13D_Y56]
stdout: YES

stdin: Check this sequence for phosphorylation enrichment at or above 0.5: DIDKIYVRTGI [PIK3CA_Y355]
stdout: NO

stdin: Check this sequence for phosphorylation enrichment at or above 0.5: HTLMKYTDGDQ [PUS7L_Y94_I92M]
stdout: YES

stdin: Check this sequence for phosphorylation enrichment at or above 0.5: DLDFTYIYPNI [PTEN_Y27_L25F]
stdout: YES

stdin: Check this sequence for phosphorylation enrichment at or above 0.5: PVQAPYQKVVA [HBB_Y131_A130P]
stdout: YES

stdin: Check this sequence for phosphorylation enrichment at or above 0.5: RREWYYEVIIA [BACE1_Y260_V265A]
stdout: NO

stdin: Check this sequence for phosphorylation enrichment at or above 0.5: YGGRDYSLDEF [MYOF_Y1705]
stdout: YES
